Each entry below carries its measured pKi, system: Mu-type opioid receptor (Homo sapiens).
Reminder that pKi is minus the log10 of a molar concentration.

Worked examples, 2 compounds total:
compound	target or test system	pKi
CCCCCC(=O)O[C@H]1C[C@@H](C(=O)OC)[C@]2(C)CCC3C(=O)O[C@H](c4ccoc4)C[C@]3(C)[C@H]2C1=O (single isomer, unassigned)	Mu-type opioid receptor (Homo sapiens)	6.28
COC(=O)[C@@H]1C[C@H](OC(=O)CCc2ccccc2)C(=O)[C@H]2[C@@]1(C)CC[C@H]1C(=O)O[C@H](c3ccoc3)C[C@]21C	Mu-type opioid receptor (Homo sapiens)	6.55

Now take the following compound into account.
Sample COC(=O)[C@@H]1C[C@H](OS(=O)(=O)c2ccc(C)cc2)C(=O)[C@H]2[C@@]1(C)CCC1C(=O)O[C@H](c3ccoc3)C[C@@]12C (single isomer, unassigned) ; pKi observed: 6.66

----------
- protocol: Selectivity ratio of Ki for mu opioid receptor to kappa opioid receptor
outcome measure: Ratio Ki
Reply: number alone, nothing else.

compound	Ratio Ki
COC(=O)[C@@H]1C[C@H](OC(=O)c2ccccc2)C(=O)[C@H]2[C@@]1(C)CC[C@H]1C(=O)O[C@H](c3ccoc3)C[C@]21C	0.13
CCCCCC(=O)O[C@H]1C[C@@H](C(=O)OC)[C@]2(C)CCC3C(=O)O[C@H](c4ccoc4)C[C@]3(C)[C@H]2C1=O (single isomer, unassigned)	7
COC(=O)[C@@H]1C[C@H](OC(=O)CCc2ccccc2)C(=O)[C@H]2[C@@]1(C)CC[C@H]1C(=O)O[C@H](c3ccoc3)C[C@]21C	2
COC(=O)[C@@H]1C[C@H](OC(=O)c2ccc(Br)cc2)C(=O)[C@H]2[C@@]1(C)CCC1C(=O)O[C@H](c3ccoc3)C[C@@]12C (single isomer, unassigned)	0.01
COC(=O)[C@@H]1C[C@H](OC(=O)c2cccs2)C(=O)[C@H]2[C@@]1(C)CC[C@H]1C(=O)O[C@H](c3ccoc3)C[C@]21C	0.04
COC(=O)[C@@H]1C[C@H](OC(=O)Cc2ccccc2)C(=O)[C@H]2[C@@]1(C)CCC1C(=O)O[C@H](c3ccoc3)C[C@@]12C (single isomer, unassigned)	4

Now take the following compound into account.
Sample COC(=O)[C@@H]1C[C@H](OS(=O)(=O)c2ccc(C)cc2)C(=O)[C@H]2[C@@]1(C)CCC1C(=O)O[C@H](c3ccoc3)C[C@@]12C (single isomer, unassigned) ; Ratio Ki observed: 4

----------
# Ki per record follows
- target or test system: Mu-type opioid receptor (Homo sapiens, UniProt P35372)
- Sequence (P35372 whole entry): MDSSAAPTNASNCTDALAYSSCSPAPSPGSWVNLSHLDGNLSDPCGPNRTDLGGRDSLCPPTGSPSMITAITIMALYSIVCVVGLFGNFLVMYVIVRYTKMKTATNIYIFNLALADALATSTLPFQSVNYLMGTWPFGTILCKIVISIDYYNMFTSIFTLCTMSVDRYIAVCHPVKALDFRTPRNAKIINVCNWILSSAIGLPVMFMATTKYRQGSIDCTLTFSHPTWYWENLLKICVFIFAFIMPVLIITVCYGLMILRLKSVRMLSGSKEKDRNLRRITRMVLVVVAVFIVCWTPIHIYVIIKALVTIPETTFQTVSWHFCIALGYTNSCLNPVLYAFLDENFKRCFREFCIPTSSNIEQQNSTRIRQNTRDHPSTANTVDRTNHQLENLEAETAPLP

Worked examples, 5 compounds total:
compound	Ki
COC(=O)[C@@H]1C[C@H](OC(=O)c2cccs2)C(=O)[C@H]2[C@@]1(C)CC[C@H]1C(=O)O[C@H](c3ccoc3)C[C@]21C	10 nM
CCCC(=O)O[C@H]1C[C@@H](C(=O)OC)[C@]2(C)CCC3C(=O)O[C@H](c4ccoc4)C[C@]3(C)[C@H]2C1=O (single isomer, unassigned)	520 nM
COC(=O)[C@@H]1C[C@H](OC(=O)CNC(=O)OC(C)(C)C)C(=O)[C@H]2[C@@]1(C)CCC1C(=O)O[C@H](c3ccoc3)C[C@@]12C (single isomer, unassigned)	5660 nM
COC(=O)[C@@H]1C[C@H](OC(=O)c2cccc(Br)c2)C(=O)[C@H]2[C@@]1(C)CCC1C(=O)O[C@H](c3ccoc3)C[C@@]12C (single isomer, unassigned)	110 nM
COC(=O)[C@@H]1C[C@H](OS(=O)(=O)c2ccccc2)C(=O)[C@H]2[C@@]1(C)CCC1C(=O)O[C@H](c3ccoc3)C[C@@]12C (single isomer, unassigned)	> 10000 nM

Now take the following compound into account.
Record COC(=O)[C@@H]1C[C@H](OC(=O)c2ccc(Br)cc2)C(=O)[C@H]2[C@@]1(C)CCC1C(=O)O[C@H](c3ccoc3)C[C@@]12C (single isomer, unassigned) ; system Mu-type opioid receptor (Homo sapiens, UniProt P35372); Ki = 10 nM
